biological target: T1, Recombinant human EGFR protein (Active) (ab155639) (human, UniProt P00533 25-645, labelled with RED-tris-NTA 2nd Generation dye); assay: MST; RED-tris-NTA-labelled EGFR 25 nM, ligand in a 16-step 1:1 dilution series in PBS-T, 30 min at room temperature; assay concentration of the ligand 10 μM; details: both partners purified
T1 construct: epidermal growth factor receptor (EGFR, ErbB-1), human, recombinant; also called EGF receptor; ErbB-1; source: bought: Abcam (ab155639), recombinant
pKd: −log10 of the molar value.

{"binder": "IGERCQ (EGF, human, residues 38-43; numbers count on: the mature protein; source: synthetic peptide (SPPS, Fmoc; crude, without preparative HPLC)) [EGF fragment 38–43 (IGERCQ)]", "pKd": 6.15}
